Header: IC50 / Cyclin-dependent kinase 2 (Homo sapiens, UniProt P24941) / multiple publications

Worked examples follow.
N[C@H](CNc1ncc(-c2ccc3cn[nH]c(=O)c3c2)s1)Cc1ccc(C(F)(F)F)cc1 ... > 1 µM
CCc1cc2c(N/N=C\c3cccs3)nc(-c3ccccc3)nc2s1 ... > 54.9 µM
C[C@H](Cc1ccc(O)cc1)NC(=O)c1cc(C(=O)O)c2cc(-c3cccc(C(F)(F)F)c3)ccc2n1 ... > 10 µM
CCSc1ccc2ncc(-c3ccnc(Nc4ccc(S(=O)(=O)NCCOC)cc4)n3)n2c1 ... < 0.003 µM
COc1ccccc1-c1cc(Nc2cccc(CS(N)(=O)=O)c2)ncn1 ... > 2 µM
Fc1ccc(-c2nn3ncccc3c2-c2ccnc(Nc3ccc(F)c(F)c3)n2)cc1 ... > 20 µM

// next item, IC50 requested
Item `Cl.[2H]C([2H])(c1cc(Nc2nc(C)cn3c(-c4cn[nH]c4)cnc23)sn1)N1CCC(F)(F)C1` has what recorded IC50?
> 0.1 µM

----------
// compounds with reported IC50 on Cyclin-dependent kinase 2 (Homo sapiens), multi-publication
MEASUREMENT LABEL: IC50 (nM)

Illustrative cases are given below, each with its answer.
O=C(N[C@H](CO)c1ccc(Cl)c(Cl)c1)N1CCc2cnc(NC3CCOCC3)nc2C1 ... 11
COc1ccc(-c2nc3c(NCCCNC(C)=O)c(Br)cnc3[nH]2)cc1 ... 370

(A) Cc1nc(-c2c(C)nn3c(-c4ccccc4)ccnc23)no1
(B) Nc1nc2ccc(C(=O)c3c(F)cccc3F)cn2c1C(=O)c1c(Cl)cccc1Cl
Returns: the argument ( A or B ) having the larger IC50. Select an item and report its label.
A

(P) NCCCCNC(=O)c1ccc(CNc2nc(N[C@H]3CC[C@H](N)CC3)nc3c2ncn3C2CCCC2)cc1
(Q) NS(=O)(=O)c1ccc(Nc2cc(-c3cccc(NS(=O)(=O)c4ccccc4)c3)n[nH]2)cc1
I'm curious, which of these has a smaller IC50 number: P or Q ? // caller expects the label of the chosen entry
Q
(Q: 10.7 nM, P: 27 nM)

----------
Target or system Cyclin-dependent kinase 2 (Homo sapiens); metric IC50; compiled from varied reports.
MEASUREMENT LABEL: IC50 (nM)

Cc1cc(Nc2nc(N[C@@H](C)c3ccc(F)cn3)c(C#N)nc2C)n[nH]1 ... 460

(a) COc1cc2c(Nc3ncc(CC(=O)Nc4cccc(F)c4)s3)ncnc2cc1OCCCN1CCC(CO)CC1
(b) COc1ccc(-c2cc(Nc3ccc(S(N)(=O)=O)cc3)[nH]n2)cc1F
# query: argmin of IC50 over a and b # reply format: chosen label
b

(1) O=C(Nc1ccc(Cl)cc1)N1CCN(c2nnc(Cc3ccccc3)c3ccccc23)CC1
(2) CN(C)CC(O)COc1ccc(Nc2nccc(Nc3ccccc3Cl)n2)cc1 (stereo not given)
(3) O=C(O)c1cc(O)c(O)c2c1c([N+](=O)[O-])cc1ccccc12
(4) O=C(NO)c1ccc(-c2ccc3ncnc(Nc4ccc(OCc5cccc(F)c5)c(Cl)c4)c3c2)o1
(5) O=C(CC1CNC(=O)c2cc(-c3cn[nH]c3)cn21)NCc1cccc(F)c1 (racemic)
Rank ascending by IC50. Use the labels to give the ranking in the order requested.
5, 1, 4, 2, 3

(1) CCc1c(C(=O)NCCc2ccc(N3CCOCC3)cc2)[nH]c2ccc(C)cc12
(2) O=C(c1ccc(-c2ccccc2F)cc1)N1CCc2c([nH]c3ccccc23)C1
Looking at 1 and 2 , which one comes out lower in IC50 terms? Indicate your choice by writing its label.
1
(1: 16 nM, 2: 310000 nM)
